- System: Mus musculus
- Method: Time duration above 1 uM plasma concentration in Swiss mouse at 20 mg/kg, po
- Type: ADME, organism-based
- Set-up: dose 20 mg/kg, route oral
- Setup Conditions: in vivo
Endpoint: Time

>  <Compound>
Cc1cc(NC2CCc3ccccc3C2)n2ncnc2n1 (centres undefined)

>  <Endpoint>
Time

>  <Measurement>
6 h

$$$$
>  <Compound>
Cc1cc(Nc2ccc3c(c2)CCCC3)n2ncnc2n1

>  <Endpoint>
Time

>  <Measurement>
1 h

$$$$
>  <Compound>
Cc1cc(Nc2ccc(S(F)(F)(F)(F)F)cc2)n2ncnc2n1

>  <Endpoint>
Time

>  <Measurement>
18 h

$$$$
>  <Compound>
Cc1cc(Nc2cc(F)c(C(F)(F)F)c(F)c2)n2ncnc2n1

>  <Endpoint>
Time

>  <Measurement>
19 h

$$$$

###

- Target Under Test: Dihydroorotate dehydrogenase (Plasmodium falciparum, UniProt Q54A96)
- Sequence (Q54A96 whole entry): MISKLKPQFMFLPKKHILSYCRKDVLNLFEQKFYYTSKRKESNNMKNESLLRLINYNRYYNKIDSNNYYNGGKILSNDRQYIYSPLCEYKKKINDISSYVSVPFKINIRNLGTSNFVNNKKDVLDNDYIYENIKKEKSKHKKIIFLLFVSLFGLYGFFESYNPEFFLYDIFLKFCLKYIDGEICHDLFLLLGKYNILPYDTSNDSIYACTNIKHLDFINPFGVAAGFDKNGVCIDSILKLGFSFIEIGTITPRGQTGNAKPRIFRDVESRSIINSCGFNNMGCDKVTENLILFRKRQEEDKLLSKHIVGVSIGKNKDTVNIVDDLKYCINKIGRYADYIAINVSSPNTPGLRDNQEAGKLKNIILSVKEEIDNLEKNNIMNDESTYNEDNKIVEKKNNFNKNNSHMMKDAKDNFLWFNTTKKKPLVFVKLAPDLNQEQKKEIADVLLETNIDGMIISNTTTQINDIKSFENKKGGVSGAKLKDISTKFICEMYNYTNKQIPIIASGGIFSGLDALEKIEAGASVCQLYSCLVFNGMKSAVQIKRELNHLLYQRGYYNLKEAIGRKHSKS
- Method: Inhibition of His6-tagged recombinant Plasmodium falciparum dihydroorotate dehydrogenase expressed in Escherichia coli using L-dihydroorotate as substrate after 5 to 10 mins by DCIP dye-based assay
# IC50 per entry
Endpoint: IC50

>  <Mol>
Cc1cc(NCc2ccccc2)n2ncnc2n1

>  <Measurement>
> 100 µM

$$$$
>  <Mol>
Cc1cc(NC2CCCCCCC2)n2ncnc2n1

>  <Measurement>
> 100 µM

$$$$
>  <Mol>
Cc1cc(NC2CCCC2)n2ncnc2n1

>  <Measurement>
> 100 µM

$$$$
>  <Mol>
CCCCCCCCc1ccc(Nc2cc(C)nc3ncnn23)cc1

>  <Measurement>
> 50 µM

$$$$
>  <Mol>
Cc1cc(NOc2ccccc2)n2ncnc2n1

>  <Measurement>
> 100 µM

$$$$

###

- System: Liver microsomes
- Method: Intrinsic clearance in human liver microsome assessed per mg of protein at 1 uM after 60 mins by LC-MS analysis
- Type: ADME
- Setup Conditions: microsomes, 1 h, 1 µM

>  <Mol>
C#Cc1ccc(Nc2cc(C)nc3ncnn23)cc1

>  <CL>
8 µL/min/mg

$$$$
>  <Mol>
Cc1cc(Nc2ccc(S(F)(F)(F)(F)F)cc2)n2ncnc2n1

>  <CL>
< 5 µL/min/mg

$$$$
>  <Mol>
Cc1cc(Nc2ccc(C3CC3)cc2)n2ncnc2n1

>  <CL>
53 µL/min/mg

$$$$
>  <Mol>
Cc1cc(Nc2ccc(SC(F)(F)F)cc2)n2ncnc2n1

>  <CL>
< 5 µL/min/mg

$$$$

###

- Target Under Test: Dihydroorotate dehydrogenase (Plasmodium falciparum, UniProt Q54A96)
- Method: Inhibition of His6-tagged recombinant Plasmodium falciparum dihydroorotate dehydrogenase expressed in Escherichia coli using L-dihydroorotate as substrate after 5 to 10 mins by DCIP dye-based assay
# IC50 per entry

>  <Molecule>
Cc1cc(NC2CCC2)n2ncnc2n1

>  <Unit Name>
nM

>  <Limit Operator>
>

>  <IC50>
100000

$$$$
>  <Molecule>
Cc1cc(Nc2ccc(N3CCCC3)cc2)n2ncnc2n1

>  <Unit Name>
nM

>  <Limit Operator>
=

>  <IC50>
3500

$$$$
>  <Molecule>
Cc1cc(Nc2cc(F)c(C(F)(F)F)c(F)c2)n2ncnc2n1

>  <Unit Name>
nM

>  <Limit Operator>
=

>  <IC50>
190

$$$$
>  <Molecule>
Cc1cc(Nc2ccc(S(F)(F)(F)(F)F)cc2)n2ncnc2n1

>  <Unit Name>
nM

>  <Limit Operator>
=

>  <IC50>
130

$$$$
>  <Molecule>
FC(F)(F)c1ccc(Nc2cc(Cl)nc3ncnn23)cc1

>  <Unit Name>
nM

>  <Limit Operator>
=

>  <IC50>
170

$$$$
>  <Molecule>
Cc1cc(Nc2ccc(CC(F)(F)F)cc2)n2ncnc2n1

>  <Unit Name>
nM

>  <Limit Operator>
=

>  <IC50>
2500

$$$$
>  <Molecule>
Cc1cc(NC2CCCCCCCCCCC2)n2ncnc2n1

>  <Unit Name>
nM

>  <Limit Operator>
=

>  <IC50>
58000

$$$$
>  <Molecule>
CCc1c(C)nc2ncnn2c1Nc1ccc(C(C)C)cc1

>  <Unit Name>
nM

>  <Limit Operator>
=

>  <IC50>
1700

$$$$
>  <Molecule>
Cc1cc(NC2CCc3cc(F)ccc3C2)n2ncnc2n1 (stereo not given)

>  <Unit Name>
nM

>  <Limit Operator>
=

>  <IC50>
630

$$$$
>  <Molecule>
Cc1cc(Nc2ccc3c(c2)CCC3)n2ncnc2n1

>  <Unit Name>
nM

>  <Limit Operator>
=

>  <IC50>
220

$$$$
>  <Molecule>
Cc1cc(Nc2ccc(C(C)(C)C)cc2)n2ncnc2n1

>  <Unit Name>
nM

>  <Limit Operator>
=

>  <IC50>
78

$$$$
>  <Molecule>
Cc1cc(NC2CCCCC2)n2ncnc2n1

>  <Unit Name>
nM

>  <Limit Operator>
>

>  <IC50>
100000

$$$$
>  <Molecule>
Cc1cc(Nc2ccc(Cl)c(F)c2)n2ncnc2n1

>  <Unit Name>
nM

>  <Limit Operator>
=

>  <IC50>
550

$$$$
>  <Molecule>
Cc1cc(NC2CC2)n2ncnc2n1

>  <Unit Name>
nM

>  <Limit Operator>
>

>  <IC50>
100000

$$$$
>  <Molecule>
Cc1cc(NCc2ccc(C(F)(F)F)cc2)n2ncnc2n1

>  <Unit Name>
nM

>  <Limit Operator>
>

>  <IC50>
100000

$$$$
